tested_system: T1, human tissue factor (TF) on MDA-MB-231, NCI-H358 and HCT116 cells (human, UniProt P13726 33-295)
T1 construct: whole, on cells; also called TF antigen; CD142
method_description: flow cytometry on H358 cells
# EC50 listing for each entry below
Value expressed in nM; do not type the unit.

binder	units_text	EC50
hu10H10-38 (antibody, V domains shown, H12+L3; Full-length IgG) VH: EVQLVQSGSELKKPGASVKVSCKASGYTFITYWIEWVKQRPGQGLEWMGDILPGHGSTNYNENFKGRATFSADTSVSTAYLQISSLKAEDTAVYYCARSGYYGNSGFAYWGQGTLVTVSS VL: DIQMTQSPSSLSASVGDRVTITCKSSQSLLSSGNQKNYLTWYQQKPGKAPKLLIYWASTREEGVPSRFSGSGSGTDFTLTISSLQPEDFATYYCQNDYTYPLTFGQGTKLEIK	nM	0.81
hu10H10-77 (antibody, V domains shown, H11+L9; Full-length IgG) VH: EVQLVQSGSELKKPGASVKVSCKASGYTFITYWIEWVKQRPGQGLEWMGDILPYSGSTNYNENFKGRATFSADTSVSTAYLQISSLKAEDTAVYYCARSGYYGNSGFAYWGQGTLVTVSS VL: DIQMTQSPSSLSASVGDRVTITCQSSQSLLSSGNQKNYLTWYQQKPGKAPKLLIYWASTRESGVPSRFSGSGSGTDFTLTISSLQPEDFATYYCQNDYTYPLTFGQGTKLEIK	nM	0.68

Item under review: hu310-2 (antibody, human IgG1, kappa, V domains shown) VH: EVQLVQSGAEVKKPGASVKVSCKASGYSFTGYYMNWVRQAPGQGLEWMGEINPSTGGSTYNQKFKARVTMTVDQSTSTVYMELSSLRSEDTAVYYCARRELGGPFGYWGQGTTVTVSS VL: SIVMTQSPDSLAVSLGERATINCKASQSVSNGIAWYQQKPGQSPKLLIYFASNRYTGVPDRFSGSGYGTDFTLTISSLQAEDVAVYYCQQDYSSPWTFGGGTKVEIKR . Reported EC50?
0.67
